Entry source: the supplement of paper PMC10567573

protein stability index overview
B1: TRIM43 (parent)
chain: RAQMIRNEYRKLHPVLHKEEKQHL

variants of: B1; assay: protein stability index of a GFP-peptide fusion (GPS, HEK-293T) (PSI 1-6); higher = more stable; settings: c terminus: a fixed tail appended;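 note: lentivirally expressed fusions sorted by FACS into six bins by GFP to DsRed ratio, PSI derived from sequencing read proportions per bin multiplied by bin number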

[[record]]
variant_key = "H13E"
obs_value = 4.06

[[record]]
variant_key = "M4H"
obs_value = 3.46

[[record]]
variant_key = "I5M"
obs_value = 3.39

[[record]]
variant_key = "E19G"
obs_value = 2.96

[[record]]
variant_key = "M4F"
obs_value = 2.61


Please give the measured protein stability index for this variant: `Q3L` 2.41

Please give the measured protein stability index for this variant: `L12I` 3.07

Please give the measured protein stability index for this variant: `Q3T` 3.27

Please give the measured protein stability index for this variant: `V15M` 3.67
